Origin of the recorded values: the supplement of paper PMC12764529

Experiment: folding stability dG unfold from chymotrypsin proteolysis; higher = more stable
Test Readout: folding stability dG unfold

residue_codes="SAGGSAGGSAGGSEEKPIPIKVKIWKPNPGELVEEKEYLIPSNGSAEEIKKAFPNAEISSAGGSAGGSAGGS [r4_187_TrMRF]" measured_value="0.689 kcal/mol"
residue_codes="SAGGSAGGSKTILIVLPPGEELTPEQLKALAAALPPDATLTILVYDPETKELHVFTFKLPEGLSAGGSAGGS [r12_913_TrROS_Hall]" measured_value="4.14 kcal/mol"
residue_codes="SAGMMKIKITLENGEELTIEVSPEEKEKLKEGDIVEIRLEDGTVFKAEVVEVRPPGETVKIRITEAVPSAGG [r19_274_TrROS_Hall]" measured_value="2.9 kcal/mol"
residue_codes="SAGGMKTYEYELELEGGGRLRIKITEDPNNPVYTVTFYSPEGKKLKTITIPANSIEEALKEAIELLKSAGGS [r16_158_JUSTAS]" measured_value="4.79 kcal/mol"
residue_codes="SPLTAEQIKKLLRELFPNAKIVSIEYDKENKTVTITFEDGLKIEVTVTEDGRVIIRITLPGKEITIEIEVSA [r9_304_TrROS_Hall]" measured_value="4.03 kcal/mol"
residue_codes="SAGGSSPWLERALEEARELMKNDPPGKEVEAKVKVPYPTPDGQQQPMKFRIRMTYKNNKIKEIEITSAGGSA [r2_173_TrROS]" measured_value="0.518 kcal/mol"
residue_codes="SAGGSAGGSAGMRYEIEVEEVPPGLVRIRVRVDGKEYTILISEEEAKRLAEELGVEIEPVSAGGSAGGSAGG [r17_109_TrROS_Hall]" measured_value="2.28 kcal/mol"

* * *

This section presents sequences with their documented folding stability dG unfold values.
Experiment: folding stability dG unfold from chymotrypsin proteolysis; higher = more stable
Test Readout: folding stability dG unfold (kcal/mol)

residue_codes="SAGGSAGGMFIALVTITLPNGEKITDLAFFESPEKIYVLNLKDGKWSEPKVEDIKVVPLEELLFSAGGSAGG [r6_558_TrMRF]" test_readout="folding stability dG unfold" measured_value=2.73
residue_codes="SAGGSAGGSAGPALRIPFLVERPDGSPFWAEARVYEDGTVELRIYGDEPIATFTFPLDELSAGGSAGGSAGG [r11_327_TrMRF]" test_readout="folding stability dG unfold" measured_value=1.6
residue_codes="SAGGSAGGSAGKMKIRVKIKRKDGKTLVIEGMSLEEIKELAEKEGFEIEKVEVVEVEPEESAGGSAGGSAGG [r11_283_TrROS_Hall]" test_readout="folding stability dG unfold" measured_value=4.24
residue_codes="SAGGSAGGSAGMPVKVVLVKWKGGGLEPEGGEEREVEIGPEELEKLVKEAEKEGYEVYPASAGGSAGGSAGG [r17_18_TrMRF]" test_readout="folding stability dG unfold" measured_value=-0.126

* * *

This section presents sequences with their documented folding stability dG unfold values.
Assay: folding stability dG unfold (combined trypsin and chymotrypsin); higher = more stable
Test Readout: folding stability dG unfold (kcal/mol)

residue_codes="SPAVRPLSAEFYDPRYTVEAPVYESEEGEPVLNIRFLVPEYELEIPFPLEDPEAVFESFAEDGVSLTLTDSA [r9_384_TrMRF]" censoring_operator== measured_value=-0.723
residue_codes="SAGGSAGGSAGGMPLTLTSETVTVERDPTSNNVVTTTTTTYKLPNGTLVTVTTTTTSPTTSAGGSAGGSAGG [r7_267_JUSTAS]" censoring_operator== measured_value=2.33
residue_codes="SAGGSAMVVVKITNPNGEKIEIEIEAETEEEAKKAAEELAKKLPKNVKVEVVKVEKVEVKDGKILKSAGGSA [r15_469_TrROS_Hall]" censoring_operator=< measured_value=-1
residue_codes="SAGMMKIKITLENGEELTIEVSPEEKEKLKEGDIVEIRLEDGTVFKAEVVEVRPPGETVKIRITEAVPSAGG [r19_274_TrROS_Hall]" censoring_operator== measured_value=2.54

* * *

This section presents sequences with their documented folding stability dG unfold values.
Experiment: folding stability dG unfold from trypsin proteolysis; higher = more stable
Test Readout: folding stability dG unfold

residue_codes="SAGGSAGGSAMIVVPVDLVRERLDELVFRGEDGVEYRAEVRVFEVGDRPVAVIDLRPLDEDGSAGGSAGGSA [r18_447_TrMRF]" measured_value="0.467 kcal/mol"
residue_codes="SAGGGSMVTQTEFTLPDGTKVSESTLPDGTVTTTITDPTNPTVTTSPVRTVSPGPLSPANPALVAALSAGGS [r16_482_JUSTAS]" measured_value="-1.09 kcal/mol"
residue_codes="SAGGSAGGSAGGMLTAVFTTPGNVRRLVPFSSEEEARALAEAEGVEVEFLDPAEAARLLSAGGSAGGSAGGS [r10_66_JUSTAS]" measured_value="-0.569 kcal/mol"
residue_codes="SAGGSAGGSMYKVEIEIETSPEGGITIKVTIIPPDGSVIEGNLTPEEVAKRFGFPPPEILELLSAGGSAGGS [r20_235_JUSTAS]" measured_value="2.21 kcal/mol"
residue_codes="SPKVTLTLEGKVITFPAPLAEKLLGELQRKGYKVKILSVEPDPETDEIYLVMEVEPLKPPPLPPPNPLLESA [r9_448_TrMRF]" measured_value="1.16 kcal/mol"
residue_codes="NKAQKLARSLARKFMRPHGYPMEIDPENNSIRFPNGEPIMEIPIDIVLLDDDGKIVEEINIPIRIRMRPPKS [r1_318_TrROS]" measured_value="0.695 kcal/mol"
residue_codes="SAGGSAGGSAEPPRYLVIELEVERSPEEIAEELRRRLGIERVEVEYDPETERLRVRVVVRLPSAGGSAGGSA [r18_275_TrROS_Hall]" measured_value="1.96 kcal/mol"

* * *

Assay: folding stability dG unfold (combined trypsin and chymotrypsin); higher = more stable
Binning of folding stability dG unfold into classes: lower level = under 1 kcal/mol, middle level = from 1 kcal/mol up to 3 kcal/mol, upper level = 3 kcal/mol and over

residue_codes="SAGGSAMKVEKEGDKVTIIVNAPESLNDKKVLTEKIKKAIEENKNKEVEIIAPPKYKPYAEETIKNSAGGSA [r15_89_JUSTAS]" class_name="lower level"
residue_codes="SAGGSAGGSAGGMVTNEVIEVDPANPEEVIAEIKAKGKAEAKKIEKLEGDKMKVYVKTSLSAGGSAGGSAGG [r7_589_JUSTAS]" class_name="lower level"
residue_codes="SAGGMNVTVTVELVPLPDEPVLFVTVETEDGSVSVITFDPATGTATVLKVSPTKTEITTVPAEDILLASAGG [r13_328_TrMRF]" class_name="middle level"
residue_codes="SAGGSAGGSAGLEIKIPNGNKTITVEKTKDYYKATIYFPETGEKVEFTFPPNVSLSLLDISAGGSAGGSAGG [r11_772_TrMRF]" class_name="middle level"
residue_codes="SAGGSAGGSKYYRVRFKEEIEITLENGEKLKIKKGDVIVVPSKEDLDRLKALFPNLEVEVEPVSAGGSAGGS [r12_987_TrROS_Hall]" class_name="upper level"
residue_codes="SAGMLDVPDDAEITVLVSLEKVPLPGDSSERVLAGVVKLKVKTLPNGEQVIESAEIKIVSAEELKKAGLSAG [r5_340_TrMRF]" class_name="middle level"
residue_codes="SAATSSTSISIPASTTSLEDVRATLAALGYPPERIVALEVVKVEPGSTKITVTLERPDGTRRTVTVTSASAG [r14_30_JUSTAS]" class_name="middle level"
residue_codes="SAGGSAGGSAGGDLVITEVRVEFDPKDGTLRVTARFELPNTGETVEVTLEFEIPYPDGASAGGSAGGSAGGS [r10_296_TrMRF]" class_name="middle level"
residue_codes="SAGGSAGGGRAEILVEPVEPEPRARVVIRLEGSGRLVVFPVEEPLEPEHVEEAVEAAIKALEENSAGGSAGG [r6_330_TrMRF]" class_name="lower level"
residue_codes="SAGGSAGGSAGGDAILIEVESPEDAVEAARELAEKEFGIDPENFPINVVVDEPDGKALIASAGGSAGGSAGG [r7_387_TrMRF]" class_name="lower level"
residue_codes="SAGGSAGGSAEELAKKLAEELRKEHNLEVTVEEVELKEEEIPGLKFKPGQKLLVITVKKKDSAGGSAGGSAG [r3_229_TrROS_Hall]" class_name="lower level"
residue_codes="SAGGGKIVFTEGYLLAEFPPTDLRVARPIPPDRPELALEEVADAFIAEMEAEFGFPPPEDVRVEVLASAGGS [r8_402_TrMRF]" class_name="lower level"
residue_codes="SDKIIIPIYLPPGQDPDEIKNEIKWFARELWDKLGLPPNVKVEIEPRPYPEGYRRYMITIRLGGKEITIWSA [r9_776_TrROS]" class_name="upper level"
residue_codes="SAGGSAGGSKFKIVSIEVTVETNEDGSKTLTVKIRLEDGSEITITVPENATLEEVLKLLKELASAGGSAGGS [r12_1047_TrROS_Hall]" class_name="upper level"
residue_codes="SAGGSAGGMSISTEQEGGKITVTDSSPGTPIAELPPDVEKEVETPVIPPPPPLYRLFLPGTVLVSAGGSAGG [r6_40_JUSTAS]" class_name="lower level"
residue_codes="SAGMKIVEIEKKEDGTVKIKIEVNGEEKEIEVKVGETITLPDGSEIEVLEDGTIKVRPLPEPEVEEEESAGG [r19_17_TrROS_Hall]" class_name="middle level"
residue_codes="STLENIEYIKLPKNKTLPLPGGETISPDEEIAIDLDKKKYINKEELEELKKKIEEELEKKKPKENPKNLISA [r9_517_JUSTAS]" class_name="lower level"
residue_codes="SAGGEEVKTIKVTLAFYNPETGELVAEVEATATLVDGKLVLTTTVTFRPAPAGEPVTVTVTVVEPEESAGGS [r16_327_TrROS_Hall]" class_name="upper level"
residue_codes="SAGIVIPFEELKEFMSDEEIEDIAREFAQDNGYPPKKIEIEPHPNPGDWITIKAEPDNGNKAPIVFRLPSAG [r5_745_TrROS]" class_name="lower level"
residue_codes="SAGGSAGGKTIEITIKLEDGKELKIKIDSPEELDKITSVELIGPGKIKITVNGKTIEITIKPKPSAGGSAGG [r6_206_TrROS_Hall]" class_name="upper level"
residue_codes="SAGGSENPNDPRPVVPVGVAVVDIEIHGHPDMTEEERLAAVEEAVEALEGLEVEHPDGHPTILLAGSAGGSA [r2_149_TrMRF]" class_name="lower level"
residue_codes="SAGGSAGGSSPEIPLPPEIAEEIEVPGSGTTVLLHPSTGLVLYKPPPEELAVGRYDPSTGVLESAGGSAGGS [r12_420_JUSTAS]" class_name="lower level"
residue_codes="SADKEAVRKIAEKFMQEPGFEPRGISPDGHIMFRPPGQGRMYRIDIDVEKDNDGLDVKIPDIEPVPMPDSAG [r14_20_TrROS]" class_name="lower level"
residue_codes="SAGMDKPVATFTRQKTPDGTEVLHVTVTTTAAGTGTTDPSTFTFPAGSDPAVVAAKVRAAGVAAVAFEPSAG [r5_37_JUSTAS]" class_name="lower level"
residue_codes="SAGGSAKVVEIELVEVRRNANGERIVRVRIKLPNGEERTIEMSEEELKELLAKLPPNVEIVAIEEVSAGGSA [r15_339_TrROS_Hall]" class_name="middle level"
residue_codes="SAGGSAGGSNEKKYIYRAKITIPGKEGEKPFEIEFESEEEVIELVEKLFPKENIKLEVEKFELDSAGGSAGG [r6_113_TrMRF]" class_name="middle level"
residue_codes="SAGGSAGGSAGGSMKIIEVPGPPEEVIEKIKEENPNAKVLSVEEDPEGGVTFKIEIEEKSAGGSAGGSAGGS [r4_95_JUSTAS]" class_name="lower level"
